For each entry below, report its pEC50 value.
tested on: MV4-11 cells; assay: Cell proliferation assay (ATPlite); assay type: cell-based; settings: Homo sapiens, 120 h; MV4-11 cells, five days; read-out: GI MV411 EC50
One number for each entry, as −log10 of the molar value.

Solved cases below.
> print(dat)
                                   molecule  quantitymeasured  observedvalue
1  C[C@H]1CN(c2cc(F)c(C3=CCCN(C(=O)OC4CC(F)(F)C4)C3)c(F)c2NC(=O)c2c[nH]c(=O)cc2C(F)F)CCN1C [Example 43]             pEC50           6.19
2  C[C@@H]1CN(c2ncc(-c3c(F)cc(N4CCN(C)[C@@H](C)C4)c(NC(=O)c4c[nH]c(=O)cc4C(F)F)c3F)cn2)CCO1 [Example 129]             pEC50           7.87
3  C[C@H]1CN(c2cc(F)c(C3=CCCN(c4ncc(F)cn4)C3)c(F)c2NC(=O)c2c[nH]c(=O)cc2C(F)(F)F)CCN1C [Example 84]             pEC50           6.79
4  C[C@@H]1CN(c2ccc(-c3c(F)cc(N4CCN(C)[C@@H](C)C4)c(NC(=O)c4c[nH]c(=O)cc4C(F)F)c3F)cn2)C[C@H](C)O1 [Example 182]             pEC50           7.51
5  C[C@H]1CN(c2cc(F)c(C3=CCN(c4ncc(F)cn4)CC3)c(F)c2NC(=O)c2c[nH]c(=O)cc2C(F)F)CCN1C [Example 81]             pEC50           7.36

Challenge: Can you share its pEC50? I mean this molecule: C[C@@H]1CN(c2ncc(-c3c(F)cc(N4CCN(C)[C@@H](C)C4)c(NC(=O)c4c[nH]c(=O)cc4C(F)F)c3F)cn2)C[C@@H](C)O1 [Example 115]
Response given: 8.03

* * *

For each entry below, report its pKd value.
molecular target: WDR5 (Homo sapiens, UniProt P61964); assay: Surface Plasmon Resonance (SPR) assay; assay type: binding; set-up: Full length WDR5 with an N-terminal His tag and C-terminal AviTag; His tag (N); made in house; host or cells: E. coli; settings: Table 2, effect of difluoro substitution; read-out: KD (SPR)
One number for each entry, as −log10 of the molar value.

Solved cases below.
compound	pKd
C[C@@H]1CN(c2ncc(-c3c(F)cc(N4C[C@@H](C)N(C)[C@@H](C)C4)c(NC(=O)c4c[nH]c(=O)cc4C(F)(F)F)c3F)cn2)C[C@H](C)O1 [drawing 478, reference compound]	8.74
C[C@@H]1CN(c2c(F)cc(-c3cnc(N4CCOCC4)nc3)cc2NC(=O)c2c[nH]c(=O)cc2C(F)(F)F)C[C@H](C)N1C [reference compound]	7.11
C[C@@H]1CN(c2ccc(-c3cnc(N4CCOCC4)nc3)c(F)c2NC(=O)c2c[nH]c(=O)cc2C(F)(F)F)C[C@H](C)N1C [reference compound]	8.96
C[C@@H]1CN(c2ncc(-c3ccc(N4C[C@@H](C)N(C)[C@@H](C)C4)c(NC(=O)c4c[nH]c(=O)cc4C(F)(F)F)c3F)cn2)C[C@H](C)O1 [reference compound]	8.74

Now, please, on to the next compound.
Challenge: Can you share its pKd? I mean this compound: C[C@@H]1CN(c2ncc(-c3cc(F)c(N4C[C@@H](C)N(C)[C@@H](C)C4)c(NC(=O)c4c[nH]c(=O)cc4C(F)(F)F)c3)cn2)C[C@H](C)O1 [reference compound]
Response given: 7.32
